experiment: xn = mol fraction of the nth substance listed, in the solute-free solvent; settings: 283.15 K; x2 = 0.3103
MEASURE: solubility (g/100 g solution)

Please review the entries below; each comes with its answer.
> print(dat)
                                   molecule                        measure  recorded.result
1  COC(=O)C1=C(C)NC(C)=C(C(=O)OCC(C)C)C1c1ccccc1[N+](=O)[O-] (stereo not given) + CCCO + O  solubility (g/100 g solution)             2.49
2         O=[N+]([O-])c1cc[nH]n1 + CCCO + O  solubility (g/100 g solution)             1.73
3  CC(=O)Nc1ccc(OC(=O)c2ccccc2OC(C)=O)cc1 + CC(C)O + O  solubility (g/100 g solution)           0.0662

(A) COC(=O)C1=C(C)NC(C)=C(C(=O)OCC(C)C)C1c1ccccc1[N+](=O)[O-] (stereo not given) + CC(C)O + O
(B) CS(=O)(=O)c1ccc(C(O)C(CF)NC(=O)C(Cl)Cl)cc1 (stereo not given) + CC(C)O + O
Quick check, higher solubility (g/100 g solution) between A and B ? Reply briefly: the label of your chosen item. A
(A: 2.84, B: 0.367)
